# Test system: Pseudomonas aeruginosa NCTC 10490
# METHOD: minimal inhibitory concentration, in vitro antibacterial activity
# Format: cell-based
# STATED_CONDITIONS: NCTC10490, 37° C., 20 hours
Let's look at some molecules and their measured MIC.
OBSERVED_PROPERTY: MIC

                                    molecule       result
 0  CC1CC(=O)c2cc(F)cc3c(=O)c(C(=O)O)cn1c23 (stereo not drawn) [Compound α, reference compound]  > 100 µg/mL
 1  CC1CC(=O)c2c(N3CCN(C)CC3)c(F)cc3c(=O)c(C(=O)O)cn1c23.Cl.O (stereo not shown)   0.78 µg/mL
 2  CC1CN(c2c(F)cc3c(=O)c(C(=O)O)cn4c3c2C=CC4C)CCN1 (stereo not shown)   1.56 µg/mL
 3  CC1CN(c2c(F)cc3c(=O)c(C(=O)O)cn4c3c2C(=O)CC4C)CCN1C.Cl.O (stereo not shown)   1.56 µg/mL
 4  CC1C=Cc2c(N3CCNCC3)c(F)cc3c(=O)c(C(=O)O)cn1c23 (stereo not shown)   3.13 µg/mL
 5  CCCN1CCN(c2c(F)cc3c(=O)c(C(=O)O)cn4c3c2C(=O)CC4C)CC1 (stereo not shown)   1.56 µg/mL
 6  CC1C=Cc2c(N3CCN(C)CC3)c(F)cc3c(=O)c(C(=O)O)cn1c23 (stereo not shown)   0.78 µg/mL
 7  CC1C=Cc2c(N3CCNC(C)(C)C3)c(F)cc3c(=O)c(C(=O)O)cn1c23 (stereo not shown)   1.56 µg/mL
 8  CC1CN(c2c(F)cc3c(=O)c(C(=O)O)cn4c3c2C(=O)CC4C)CC(C)N1 (stereo not shown)   1.56 µg/mL
 9  CC1CN(c2c(F)cc3c(=O)c(C(=O)O)cn4c3c2C(=O)CC4C)CCN1 (stereo not shown)   0.78 µg/mL
10  CC1C=Cc2c(N3CCN(C)CC3)c(F)cc3c(=O)c(C(=O)O)cn1c23.Cl (stereo not shown)   0.78 µg/mL
11  CC1CN(c2c(F)cc3c(=O)c(C(=O)O)cn4c3c2C(=O)CC4C)CC(C)N1C.Cl.O (stereo not shown)   3.13 µg/mL
12  CC1CN(c2c(F)cc3c(=O)c(C(=O)O)cn4c3c2C=CC4C)CCN1C (stereo not shown)   1.56 µg/mL
13  CCN1CCN(c2c(Cl)cc3c(=O)c(C(=O)O)cn4c3c2C(=O)CC4C)CC1 (stereo not shown)   0.78 µg/mL
14  CC1CC(=O)c2c(N3CCN(C)CC3)c(F)cc3c(=O)c(C(=O)O)cn1c23 (stereo not shown)   0.78 µg/mL
15  CC1CC(=O)c2c(N3CCNCC3)c(F)cc3c(=O)c(C(=O)O)cn1c23 (stereo not shown)   1.56 µg/mL

---

# METHOD: enteral absorbability, serum concentration after oral administration to mice
# Format: in vivo
# STATED_CONDITIONS: mouse, 4 hr., 50 mg/kg orally, fasted male ICR mice
Let's look at some compounds and their measured concentration at 4 h.
OBSERVED_PROPERTY: concentration at 4 h (ng/mL)

>>> df
                                   compound     observed_property  numeric_value
0  CC1CC(=O)c2c(N3CCN(C)CC3)c(F)cc3c(=O)c(C(=O)O)cn1c23.Cl.O (centres unmarked) [Compound 35]  concentration at 4 h           8500
1  CCN1CCN(c2c(Cl)cc3c(=O)c(C(=O)O)cn4c3c2C(=O)CC4C)CC1 (centres unmarked) [Compound 9]  concentration at 4 h           4500
2  CC1CN(c2c(F)cc3c(=O)c(C(=O)O)cn4c3c2C(=O)CC4C)CC(C)N1 (centres unmarked) [Compound 11]  concentration at 4 h           5300
3  CC1CC(=O)c2c(N3CCNC(C)(C)C3)c(F)cc3c(=O)c(C(=O)O)cn1c23 (centres unmarked) [Compound 15]  concentration at 4 h           4300
4  CC1CN(c2c(F)cc3c(=O)c(C(=O)O)cn4c3c2C(=O)CC4C)CCN1C.Cl.O (centres unmarked) [Compound 38]  concentration at 4 h           9000
5  CC1CN(c2c(Cl)cc3c(=O)c(C(=O)O)cn4c3c2C=CC4C)CCN1 (centres unmarked) [Compound 31]  concentration at 4 h           5000
6  CC1CN(c2c(F)cc3c(=O)c(C(=O)O)cn4c3c2C=CC4C)CCN1C (centres unmarked) [Compound 25]  concentration at 4 h           5400
7  CC1CC(=O)c2c(N3CCN(C)CC3)c(F)cc3c(=O)c(C(=O)O)cn1c23 (centres unmarked) [Compound 3]  concentration at 4 h           8400

---

Below are MIC values recorded for Staphylococcus aureus FDA 209P JC-1.
OBSERVED_PROPERTY: MIC (µg/mL)

                                   compound  observed_property  numeric_value
0  CC1CN(c2c(F)cc3c(=O)c(C(=O)O)cn4c3c2C(=O)CC4C)CCN1 (stereo not shown) [Compound 16]                MIC            0.2
1  CC1CC(=O)c2c(N3CCNCC3)c(Cl)cc3c(=O)c(C(=O)O)cn1c23 (stereo not shown) [Compound 2]                MIC           0.39
2  CCN1CCN(c2c(Cl)cc3c(=O)c(C(=O)O)cn4c3c2C(=O)CC4C)CC1 (stereo not shown) [Compound 9]                MIC           0.39
3  CC1C=Cc2c(N3CCN(C)CC3)c(Cl)cc3c(=O)c(C(=O)O)cn1c23 (stereo not shown) [Compound 24]                MIC            0.2

---

# System: Salmonella enteritidis G14
OBSERVED_PROPERTY: MIC (µg/mL)

                                    compound  observed_property  measurement_units  numeric_value
 0  CCN1CCN(c2c(Cl)cc3c(=O)c(C(=O)O)cn4c3c2C(=O)CC4C)CC1 (centres unmarked) [Compound 9]                MIC              µg/mL           0.78
 1  CC1C=Cc2c(N3CCN(C)CC3)c(Cl)cc3c(=O)c(C(=O)O)cn1c23 (centres unmarked) [Compound 24]                MIC              µg/mL           1.56
 2  CC1CC(=O)c2cc(F)cc3c(=O)c(C(=O)O)cn1c23 (stereo not drawn) [Compound α, reference compound]                MIC              µg/mL             50
 3  CC1CN(c2c(F)cc3c(=O)c(C(=O)O)cn4c3c2C(=O)CC4C)CCN1C.Cl.O (centres unmarked) [Compound 38]                MIC              µg/mL           0.78
 4  CC1C=Cc2c(N3CCNCC3)c(Cl)cc3c(=O)c(C(=O)O)cn1c23 (centres unmarked) [Compound 22]                MIC              µg/mL           0.78
 5  CC1CC(=O)c2c(N3CCN(C)CC3)c(F)cc3c(=O)c(C(=O)O)cn1c23 (centres unmarked) [Compound 3]                MIC              µg/mL           0.78
 6  CC1CN(c2c(Cl)cc3c(=O)c(C(=O)O)cn4c3c2C=CC4C)CCN1 (centres unmarked) [Compound 31]                MIC              µg/mL           1.56
 7  CC1CN(c2c(F)cc3c(=O)c(C(=O)O)cn4c3c2C(=O)CC4C)CC(C)N1 (centres unmarked) [Compound 11]                MIC              µg/mL           0.78
 8  CC1C=Cc2c(N3CCNCC3)c(F)cc3c(=O)c(C(=O)O)cn1c23 (centres unmarked) [Compound 20]                MIC              µg/mL           0.78
 9  CC1C=Cc2c(N3CCNC(C)(C)C3)c(F)cc3c(=O)c(C(=O)O)cn1c23 (centres unmarked) [Compound 26]                MIC              µg/mL           1.56
10  CC1CN(c2c(F)cc3c(=O)c(C(=O)O)cn4c3c2C(=O)CC4C)CC(C)N1C.Cl.O (centres unmarked) [Compound 39]                MIC              µg/mL           0.78
11  CC1CC(=O)c2c(N3CCN(C)CC3)c(Cl)cc3c(=O)c(C(=O)O)cn1c23 (centres unmarked) [Compound 7]                MIC              µg/mL           0.78
12  CC1CC(=O)c2c(N3CCNCC3)c(F)cc3c(=O)c(C(=O)O)cn1c23 (centres unmarked) [Compound 1]                MIC              µg/mL           0.39
13  CC1CC(=O)c2c(N3CCNC(C)(C)C3)c(F)cc3c(=O)c(C(=O)O)cn1c23 (centres unmarked) [Compound 15]                MIC              µg/mL           0.78
14  CC1CN(c2c(F)cc3c(=O)c(C(=O)O)cn4c3c2C=CC4C)CCN1 (centres unmarked) [Compound 29]                MIC              µg/mL           0.78
15  CC1CN(c2c(F)cc3c(=O)c(C(=O)O)cn4c3c2C(=O)CC4C)CCN1 (centres unmarked) [Compound 16]                MIC              µg/mL           0.78
16  CC1C=Cc2c(N3CCN(C)CC3)c(F)cc3c(=O)c(C(=O)O)cn1c23.Cl (centres unmarked) [Compound 37]                MIC              µg/mL           0.78

Numbers sourced from patent US4720495A.
